assay: in vivo; details: mouse, iv
MEASURED PROPERTY: NOAEL

The compound listed as CN(Cc1cnc2nc(N)nc(N)c2n1)c1ccc(C(=O)N[C@@H](CCC(=O)O)C(=O)N[C@@H](Cc2cccc(C3CCCC3)c2)C(=O)O)cc1 has a reported NOAEL of ≥ 40 mg/kg

The compound listed as CN(Cc1cnc2nc(N)nc(N)c2n1)c1ccc(C(=O)N[C@@H](CCC(=O)O)C(=O)N[C@@H](Cc2cccc(C(C)(C)C)c2)C(=O)O)cc1 [Prodrug 12] has a reported NOAEL of ≥ 40 mg/kg

---

I'd appreciate it if you could supply kcat values for the items below.
test system: 268ala; experiment: Enzyme kinetics of prodrugs with 268ala mutant of human CPA1 (coupled assay); type: biochemical; conditions: 25° C., pH 7.4
Give the value in s⁻¹ but do not write s⁻¹ after it.

The molecule listed as CN(Cc1cnc2nc(N)nc(N)c2n1)c1ccc(C(=O)N[C@@H](CCC(=O)O)C(=O)N[C@@H](Cc2cccc(C3CCC3)c2)C(=O)O)cc1 has a reported kcat of 0.12

The molecule listed as CN(Cc1cnc2nc(N)nc(N)c2n1)c1ccc(C(=O)N[C@@H](CCC(=O)O)C(=O)N[C@@H](Cc2ccccc2)C(=O)O)cc1 [Prodrug 10, reference compound] has a reported kcat of 2

The molecule listed as CN(Cc1cnc2nc(N)nc(N)c2n1)c1ccc(C(=O)N[C@@H](CCC(=O)O)C(=O)N[C@@H](Cc2cccc(C3CCCC3)c2)C(=O)O)cc1 has a reported kcat of 0.001

The molecule listed as CN(Cc1cnc2nc(N)nc(N)c2n1)c1ccc(C(=O)N[C@@H](CCC(=O)O)C(=O)N[C@@H](Cc2ccc(O)c(C3CCCC3)c2)C(=O)O)cc1 [Prodrug 13] has a reported kcat of 0.0006

The molecule listed as CN(Cc1cnc2nc(N)nc(N)c2n1)c1ccc(C(=O)N[C@@H](CCC(=O)O)C(=O)N[C@@H](Cc2ccccc2C2CCCC2)C(=O)O)cc1 [Prodrug 8] has a reported kcat of 0.088
